Assay: activity coefficient (dimensionless); of the first substance listed, at infinite dilution; xn = mol fraction of the nth substance listed
Conditions: 333.1 K; 101.3 kPa; Liquid; Chromatography; x1 = 0
measured-property: activity coefficient

Endpoint output: activity coefficient of Cc1cccc(C)c1 [1,3-dimethylbenzene] + CCn1cc[n+](C)c1.N#C[B-](C#N)(C#N)C#N . Value? 3.01

Consider the compound shown here: CCCO [propan-1-ol] + CCn1cc[n+](C)c1.N#C[B-](C#N)(C#N)C#N What is its recorded activity coefficient? 1.6

Field request: activity coefficient | item: CCO [ethanol] + CCn1cc[n+](C)c1.N#C[B-](C#N)(C#N)C#N 1.27

So what does the record say about activity coefficient for CO [methanol] + CCn1cc[n+](C)c1.N#C[B-](C#N)(C#N)C#N ? 0.91

Which value of activity coefficient has been reported for C=CCCCC [hex-1-ene] + CCn1cc[n+](C)c1.N#C[B-](C#N)(C#N)C#N in the records? 7.35

I am curious: what activity coefficient value has been reported for C#CCCCCCC [1-octyne] + CCn1cc[n+](C)c1.N#C[B-](C#N)(C#N)C#N ? 8.84

Suppose we examine the compound C=CCCCCCCCC [1-decene] + CCn1cc[n+](C)c1.N#C[B-](C#N)(C#N)C#N ; what activity coefficient value has been reported? 47.8

Which activity coefficient value belongs to C#CCCCCC [1-heptyne] + CCn1cc[n+](C)c1.N#C[B-](C#N)(C#N)C#N ? 5.78

# query: activity coefficient of entry C=CCCCCCC [oct-1-ene] + CCn1cc[n+](C)c1.N#C[B-](C#N)(C#N)C#N 21.5

// activity coefficient lookup, key: C#CCCC [1-pentyne] + CCn1cc[n+](C)c1.N#C[B-](C#N)(C#N)C#N 2.38

Recorded activity coefficient of C#CCCCC [1-hexyne] + CCn1cc[n+](C)c1.N#C[B-](C#N)(C#N)C#N , please. 3.77
